Ref: patent US8436015B2

# MEASURED_TARGET: human glucagon receptor (Homo sapiens, UniProt P47871)
# Sequence (P47871 26-477): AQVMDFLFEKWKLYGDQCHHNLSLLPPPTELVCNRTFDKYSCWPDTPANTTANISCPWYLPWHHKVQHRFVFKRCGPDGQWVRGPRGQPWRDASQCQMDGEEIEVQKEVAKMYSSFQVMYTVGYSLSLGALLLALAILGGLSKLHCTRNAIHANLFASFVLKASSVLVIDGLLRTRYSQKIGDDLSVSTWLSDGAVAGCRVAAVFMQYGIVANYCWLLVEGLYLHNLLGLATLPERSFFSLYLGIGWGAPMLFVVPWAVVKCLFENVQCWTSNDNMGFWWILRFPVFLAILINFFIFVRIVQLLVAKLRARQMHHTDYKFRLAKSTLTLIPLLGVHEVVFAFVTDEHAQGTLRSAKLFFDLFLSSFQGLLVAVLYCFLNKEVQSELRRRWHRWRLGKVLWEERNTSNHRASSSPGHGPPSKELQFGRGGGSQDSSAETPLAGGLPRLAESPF
QUANTITY: pIC50
Answers are plain numbers, as −log10 of the molar value.

COMPOUND: CCCC(c1ccc(C(=O)NCCC(=O)O)cc1)C(c1ccc(Cl)cc1)c1cc(C)nc2ccc(Cl)cc12 (stereo not shown)
pIC50: 8.85

Would you be so kind as to report pIC50 for each listed record?
1. CCC[C@H](c1ccc(C(=O)NCCC(=O)O)cc1)C(c1ccc(Cl)cc1)c1ncnc2c(F)cc(C)cc12 (single isomer, unassigned)
2. CCC(c1ccc(C(=O)NCCC(=O)O)cc1)C(c1ccc(OC(F)(F)F)cc1)c1cccc2nc(OC)ccc12 (stereo not shown)
3. CCCC(c1ccc(C(=O)NCCC(=O)O)cc1)C(c1ccc(Cl)cc1)c1cccc2nc(OCCOC)ccc12 (stereo not shown)
4. CCCC(c1ccc(C(=O)NCCC(=O)O)cc1)C(c1ccc(Cl)cc1)c1ccnc2cc(C)c(Cl)cc12 (stereo not shown)
5. CCCC(c1ccc(C(=O)NCCC(=O)O)cc1)C(c1ccc(OC(F)(F)F)cc1)c1ccnc2cc(F)ccc12 (stereo not shown)
6. CCC[C@H](c1ccc(C(=O)NCCC(=O)O)cc1)C(c1ccc(Cl)cc1)c1cccc2nc(-c3ccn[nH]3)ccc12 (stereo partly shown)

8.85
9.52
9.05
9.30
9.70
7.74
